# TARGET UNDER TEST: natural β-amyloid peptide β-AP1-40 (human)
# Sequence (peptide, as listed by the source): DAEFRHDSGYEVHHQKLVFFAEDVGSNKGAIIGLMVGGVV
# ASSAY INFO: cell-based or functional assay
Ends that are not written are not given here. * marks the point of attachment. Cholyl = C[C@H](CCC(=O)*)[C@H]1CC[C@H]2[C@@H]3[C@H](O)C[C@@H]4C[C@H](O)CC[C@]4(C)[C@H]3C[C@H](O)[C@]12C
I'd appreciate it if you could supply % Inhibition of Plateau; nucleation assay; 10 mole % values for the items below.

BINDER	EXPERIMENTAL RESULT
Cholyl-KLVFF-NH2 [cholyl-Aβ16-20-amide]	~0%
Cholyl-QKLVF-OH (SMILES CC(C)C[C@H](NC(=O)[C@H](CCCCN)NC(=O)[C@H](CCC(N)=O)NC(=O)CC[C@@H](C)[C@H]1CC[C@H]2[C@@H]3[C@H](O)C[C@@H]4C[C@H](O)CC[C@]4(C)[C@H]3C[C@H](O)[C@]12C)C(=O)N[C@H](C(=O)N[C@@H](Cc1ccccc1)C(=O)O)C(C)C) [cholyl-Aβ15-19]	~0%

Okay, next one:
Ask | Provide measured % Inhibition of Plateau; nucleation assay; 10 mole % value, entry: Cholyl-HDSGYEVHHQKLVFF [cholyl-Aβ6-20]
Reply | 43%
